- Assayed System: rat AT1aR (Rattus norvegicus)
- Sequence (P25095 whole entry): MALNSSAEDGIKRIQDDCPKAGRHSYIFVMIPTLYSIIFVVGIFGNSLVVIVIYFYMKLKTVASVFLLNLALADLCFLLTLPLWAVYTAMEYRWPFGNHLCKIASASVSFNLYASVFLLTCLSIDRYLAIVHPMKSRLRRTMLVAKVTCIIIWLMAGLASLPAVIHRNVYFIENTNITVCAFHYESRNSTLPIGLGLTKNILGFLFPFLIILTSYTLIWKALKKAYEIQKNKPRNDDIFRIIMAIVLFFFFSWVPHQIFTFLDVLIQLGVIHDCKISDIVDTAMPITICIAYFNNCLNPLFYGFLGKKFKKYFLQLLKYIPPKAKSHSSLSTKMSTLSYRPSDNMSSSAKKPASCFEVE
- Protocol Text: beta-arrestin2 recruitment assay (PathHunter), rat AT1aR
- Format: cell-based
- Condition Label: read-out: pEC50 (converted)
Where a SMILES comes first, the peptide text is derived from it. [ ]: non-standard residue; d: D form. Ac6c = NC1(C(=O)O)CCCCC1; Ac5c = NC1(C(=O)O)CCCC1; Sar = CNCC(=O)O
Recorded Endpoint: EC50

Known results for molecules:
Specify measured EC50 for CC[C@H](C)[C@H](NC(=O)[C@@H]1CCCN1C(=O)[C@H](Cc1c[nH]cn1)NC(=O)C1(NC(=O)[C@H](Cc2ccc(O)cc2)NC(=O)[C@@H](NC(=O)[C@H](CCCNC(=N)N)NC(=O)CNC)C(C)C)CCCCC1)C(=O)O [SEQ ID NO: 11, Sar-Arg-Val-Tyr-cyHex-His-Pro-Ile] (H-[Sar]RVY[Ac6c]HPI-OH) .
> 3.16 nM

Specify measured EC50 for CNCC(=O)N[C@@H](CCCNC(=N)N)C(=O)N[C@H](C(=O)N[C@@H](Cc1ccc(O)cc1)C(=O)NC1(C(=O)N[C@@H](Cc2c[nH]cn2)C(=O)N2CCC[C@H]2C(=O)N[C@@H](CC(N)=O)C(=O)O)CCCCC1)C(C)C [SEQ ID NO: 36, Sar-Arg-Val-Tyr-cyHex-His-Pro-Asn] (H-[Sar]RVY[Ac6c]HPN-OH) .
> 3.16 nM

Next:
Specify measured EC50 for CNCC(=O)N[C@@H](CCCNC(=N)N)C(=O)N[C@H](C(=O)N[C@@H](Cc1ccc(O)cc1)C(=O)NC1(C(=O)N[C@@H](Cc2c[nH]cn2)C(=O)N2CCC[C@H]2C(=O)N[C@@H](Cc2ccccc2)C(=O)O)CCCC1)C(C)C [SEQ ID NO: 24, Sar-Arg-Val-Tyr-cyPen-His-Pro-Phe] (H-[Sar]RVY[Ac5c]HPF-OH) .
> 3.16 nM
